Below, each entry is listed alongside its reported residual activity.
target entity: Macrophage-stimulating protein receptor (Homo sapiens) (UniProt Q04912)
Sequence (Q04912 25-304 limits assumed): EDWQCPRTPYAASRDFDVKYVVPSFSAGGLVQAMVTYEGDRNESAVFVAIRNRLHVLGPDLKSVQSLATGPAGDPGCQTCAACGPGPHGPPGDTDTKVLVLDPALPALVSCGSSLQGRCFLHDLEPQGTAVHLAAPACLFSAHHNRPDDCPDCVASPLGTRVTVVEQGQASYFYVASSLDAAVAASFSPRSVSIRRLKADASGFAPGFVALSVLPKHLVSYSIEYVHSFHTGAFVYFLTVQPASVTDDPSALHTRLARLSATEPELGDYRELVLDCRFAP
Sequence (Q04912 310-1400 limits assumed): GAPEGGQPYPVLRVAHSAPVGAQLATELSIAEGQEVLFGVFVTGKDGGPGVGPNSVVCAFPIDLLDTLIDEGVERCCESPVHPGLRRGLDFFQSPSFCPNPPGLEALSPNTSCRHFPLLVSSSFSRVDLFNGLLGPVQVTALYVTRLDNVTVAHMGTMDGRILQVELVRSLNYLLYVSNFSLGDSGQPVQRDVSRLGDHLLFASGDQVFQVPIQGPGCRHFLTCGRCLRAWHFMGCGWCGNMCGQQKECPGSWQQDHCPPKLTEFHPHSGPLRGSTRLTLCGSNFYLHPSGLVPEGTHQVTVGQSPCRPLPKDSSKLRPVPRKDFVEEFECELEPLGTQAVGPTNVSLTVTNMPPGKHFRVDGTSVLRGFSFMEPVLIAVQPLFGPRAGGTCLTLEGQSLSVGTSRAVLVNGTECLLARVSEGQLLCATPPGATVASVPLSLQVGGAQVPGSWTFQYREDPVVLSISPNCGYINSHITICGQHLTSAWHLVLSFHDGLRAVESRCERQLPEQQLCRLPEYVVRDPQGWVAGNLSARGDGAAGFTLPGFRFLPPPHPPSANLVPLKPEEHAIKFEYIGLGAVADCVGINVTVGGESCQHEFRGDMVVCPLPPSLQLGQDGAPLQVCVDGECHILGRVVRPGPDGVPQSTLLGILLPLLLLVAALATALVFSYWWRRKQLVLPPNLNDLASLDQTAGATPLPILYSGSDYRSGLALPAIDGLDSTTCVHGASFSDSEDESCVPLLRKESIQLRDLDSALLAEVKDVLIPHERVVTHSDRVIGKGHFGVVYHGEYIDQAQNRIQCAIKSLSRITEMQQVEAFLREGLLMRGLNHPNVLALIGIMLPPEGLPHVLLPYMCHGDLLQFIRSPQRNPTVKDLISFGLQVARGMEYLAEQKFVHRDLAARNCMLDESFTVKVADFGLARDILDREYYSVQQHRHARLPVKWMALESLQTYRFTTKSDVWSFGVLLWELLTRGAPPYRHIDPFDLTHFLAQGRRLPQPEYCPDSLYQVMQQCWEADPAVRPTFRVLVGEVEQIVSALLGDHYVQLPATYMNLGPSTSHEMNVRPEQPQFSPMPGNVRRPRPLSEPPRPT
assay setup: at 10 µM
metric: residual activity (%)

>>> endpoint_value("O=C1Nc2ccc(Br)cc2/C1=C\\c1cc2c([nH]1)CCCC2")
84
>>> endpoint_value("Cc1cc(Nc2nc(-c3ccccc3)nc3ccccc23)n[nH]1")
54
>>> endpoint_value("c1ccc(-c2n[nH]c3c2oc2ccccc23)cc1")
73
>>> endpoint_value("CC[n+]1c(/C=C/N(C)c2ccccc2)n(-c2ccccc2)c2ccc(-c3nc4ccccc4s3)cc21")
57
>>> endpoint_value("Cc1nc2cc3nc(-c4cccs4)cnc3cc2n1C")
97
>>> endpoint_value("CO[C@H]1[C@@H](OC)C[C@H](C)[C@@H](OC)C2=CC(=O)C=C(NC(=O)/C(C)=C/C=C/[C@H](OC)[C@@H](OC(N)=O)/C(C)=C/[C@@H]1C)C2=O")
85
>>> endpoint_value("CCN(CC)C(=O)c1ccc(Nc2nc(OCC3CCCCC3)c3nc[nH]c3n2)cc1")
42
>>> endpoint_value("N#CC(C#N)=C(N)/C(C#N)=C/c1ccc(O)cc1")
100
>>> endpoint_value("CCOc1cc2ncnc(Nc3cccc(Br)c3)c2cc1OCC")
57
>>> endpoint_value("Nc1ccc2ncnc(NCCc3ccc(Oc4ccccc4)cc3)c2c1")
70
>>> endpoint_value("O=C1Nc2ccccc2/C1=C1/Nc2ccccc2/C1=N\\OCCC(O)CO (stereo unspecified)")
61

---

target entity: Ephrin type-A receptor 3 (Homo sapiens) (UniProt P29320)
Sequence (P29320 whole entry): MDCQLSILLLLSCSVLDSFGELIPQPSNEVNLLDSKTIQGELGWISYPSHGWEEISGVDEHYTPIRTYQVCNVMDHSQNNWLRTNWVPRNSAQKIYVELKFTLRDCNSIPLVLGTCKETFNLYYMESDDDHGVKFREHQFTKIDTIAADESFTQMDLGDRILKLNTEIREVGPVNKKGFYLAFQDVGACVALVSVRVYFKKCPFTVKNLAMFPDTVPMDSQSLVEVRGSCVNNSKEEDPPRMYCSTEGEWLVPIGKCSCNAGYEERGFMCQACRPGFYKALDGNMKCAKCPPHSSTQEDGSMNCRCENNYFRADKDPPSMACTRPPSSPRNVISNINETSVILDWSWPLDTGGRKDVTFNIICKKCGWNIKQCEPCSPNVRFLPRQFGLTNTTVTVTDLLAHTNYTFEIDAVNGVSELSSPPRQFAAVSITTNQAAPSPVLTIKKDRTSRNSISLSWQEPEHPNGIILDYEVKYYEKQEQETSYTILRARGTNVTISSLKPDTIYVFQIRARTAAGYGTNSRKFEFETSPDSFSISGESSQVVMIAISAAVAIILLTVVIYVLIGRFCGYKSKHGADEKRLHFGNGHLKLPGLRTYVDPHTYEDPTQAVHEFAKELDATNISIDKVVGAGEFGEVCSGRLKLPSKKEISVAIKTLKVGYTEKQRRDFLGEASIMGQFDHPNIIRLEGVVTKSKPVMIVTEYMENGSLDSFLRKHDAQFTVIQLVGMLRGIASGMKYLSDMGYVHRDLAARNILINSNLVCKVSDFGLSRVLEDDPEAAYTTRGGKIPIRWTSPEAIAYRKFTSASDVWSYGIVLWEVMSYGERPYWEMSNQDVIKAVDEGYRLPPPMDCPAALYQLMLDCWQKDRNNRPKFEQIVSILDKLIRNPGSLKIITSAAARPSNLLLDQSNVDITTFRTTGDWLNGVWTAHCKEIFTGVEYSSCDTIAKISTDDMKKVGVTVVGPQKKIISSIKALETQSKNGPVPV
assay setup: at 10 µM
metric: residual activity (%)

>>> endpoint_value("CN(C)c1ccc(/C=C2\\C(=O)Nc3ccccc32)cc1")
100
>>> endpoint_value("CCC(=O)Nc1ccc2ncnc(Nc3cccc(Br)c3)c2c1")
82
>>> endpoint_value("Cc1nc2cc3nc(-c4cccs4)cnc3cc2n1C")
94
>>> endpoint_value("Oc1ccc(Nc2nc(-c3ccc(Cl)cc3)cs2)cc1")
111
>>> endpoint_value("O=C1NC(=O)c2c1c1c3ccccc3[nH]c1c1[nH]c3cc(Br)ccc3c21")
86
>>> endpoint_value("c1ccc2c(-c3ccncc3)c[nH]c2c1")
92
>>> endpoint_value("O=C(Nc1cccc(Nc2cc(Nc3cccc(C(F)(F)F)c3)ncn2)c1)C1CC1")
114
>>> endpoint_value("Cc1cncc2cccc(S(=O)(=O)N3CCCN(C(=O)CN)C[C@H]3C)c12")
50
>>> endpoint_value("COc1cc2ncnc(Nc3ccc(Oc4ccccc4)cc3)c2cc1OC")
106
>>> endpoint_value("c1ccc(-c2n[nH]cc2-c2ccnc3ccccc23)nc1")
78
>>> endpoint_value("O=[N+]([O-])c1ccc(-c2nc(-c3ccc(F)cc3)c(-c3ccncc3)[nH]2)cc1")
90
>>> endpoint_value("O=C(Nc1cccc(Nc2nccc(Nc3cccc(C(F)(F)F)c3)n2)c1)C1CC1")
47
>>> endpoint_value("COc1cc2ncnc(Nc3ccc(O)c(Br)c3)c2cc1OC")
20
>>> endpoint_value("COc1cc2ncnc(N3CCN(C(=O)Nc4ccc(Oc5ccccc5)cc4)CC3)c2cc1OC")
112
>>> endpoint_value("O=C1NC(=O)/C(=C\\c2ccc3nccnc3c2)S1")
87
>>> endpoint_value("COc1ccc(C(=O)Nc2sc3c(c2C(N)=O)CCCC3)cc1OC")
89
>>> endpoint_value("Oc1ccc(-c2nc(-c3ccc(F)cc3)c(-c3ccncc3)[nH]2)cc1")
81
>>> endpoint_value("CCN(CC)CCCCN1c2ccccc2Oc2ccc(Cl)cc21")
97
>>> endpoint_value("Cc1cc2ncc(-c3ccccc3)nc2cc1C")
92
>>> endpoint_value("N#Cc1cnc2cnc(NCc3cccnc3)cc2c1Nc1ccc(F)c(Cl)c1")
72
>>> endpoint_value("NC(=O)c1ccc2[nH]c(-c3ccc(Oc4ccc(Cl)cc4)cc3)nc2c1")
111
>>> endpoint_value("O=Nc1c(-c2c(O)[nH]c3ccccc23)[nH]c2ccccc12")
9
>>> endpoint_value("Cc1cc(Nc2nc(-c3ccccc3)nc3ccccc23)n[nH]1")
8
>>> endpoint_value("Nc1ccc2ncnc(NCCc3ccc(Oc4ccccc4)cc3)c2c1")
92
>>> endpoint_value("CNc1cc2c(Nc3cccc(Br)c3)ncnc2cn1")
78
>>> endpoint_value("Nc1cccc(-c2cc3c(Oc4cccc(O)c4)ncnc3[nH]2)c1")
0

---

Below, each entry is listed alongside its reported residual activity.
target entity: Serine/threonine-protein kinase 10 (Homo sapiens)
assay setup: at 1 µM
metric: residual activity

>>> endpoint_value("CO[C@@H]1[C@H](N(C)C(=O)c2ccccc2)C[C@H]2O[C@]1(C)n1c3ccccc3c3c4c(c5c6ccccc6n2c5c31)C(=O)NC4")
"21%"
>>> endpoint_value("CNc1cc2c(Nc3cccc(Br)c3)ncnc2cn1")
"27%"
>>> endpoint_value("COc1ccc(C(=O)Nc2sc3c(c2C(N)=O)CCCC3)cc1OC")
"100%"
>>> endpoint_value("O=C1c2ccccc2-[n+]2ccc3c([nH]c4ccccc43)c21")
"94%"
>>> endpoint_value("Cc1nc(-c2ccccc2)c(-c2ccncc2)o1")
"119%"
>>> endpoint_value("O=C1NC(=O)/C(=C\\c2ccc3nccnc3c2)S1")
"71%"
>>> endpoint_value("Cn1cnc2cc3c(Nc4cccc(Br)c4)ncnc3cc21")
"31%"
>>> endpoint_value("O=c1c2ccccc2[nH]c(=S)n1CCN1CCC(=C(c2ccc(F)cc2)c2ccc(F)cc2)CC1")
"107%"
>>> endpoint_value("Cn1cc(/C=C2\\C(=O)Nc3ccc(S(N)(=O)=O)cc32)c2ccccc21")
"45%"
>>> endpoint_value("CC(=O)c1ccc(N2CCOCC2)cc1O")
"102%"
>>> endpoint_value("O=C1Nc2ccc(Br)cc2/C1=C\\c1cc2c([nH]1)CCCC2")
"74%"
>>> endpoint_value("O=C1NC(=O)c2cc(Nc3ccc(F)cc3)c(Nc3ccc(F)cc3)cc21")
"89%"
>>> endpoint_value("CCOc1cc2ncnc(Nc3cccc(Br)c3)c2cc1OCC")
"23%"
>>> endpoint_value("N#CC(C#N)=C(N)/C(C#N)=C/c1ccc(O)cc1")
"98%"
>>> endpoint_value("COc1cc2ncc(-c3ccccc3)nc2cc1OC")
"90%"
>>> endpoint_value("COc1ccc(CNc2nc(N(CCO)CCO)nc3c2ncn3C(C)C)cc1")
"101%"
>>> endpoint_value("O=C1NC(=O)/C(=C/c2ccc3c(c2)OC(F)(F)O3)S1")
"89%"

---

Below, each entry is listed alongside its reported residual activity.
target entity: CDK6/cyclin D3 (Homo sapiens) (UniProt P30281+Q00534)
assay setup: at 10 µM
Description: Millipore: Percentage of residual kinase activity of CDK6 at 10uM relative to control. Control inhibitor: Phosphoric acid* at 0.3uM. Buffer: 8 mM MOPS pH 7.0, 0.2 mM EDTA
metric: residual activity (%)

>>> endpoint_value("CO[C@H]1[C@@H](OC)C[C@H](C)[C@@H](OC)C2=CC(=O)C=C(NC(=O)/C(C)=C/C=C/[C@H](OC)[C@@H](OC(N)=O)/C(C)=C/[C@@H]1C)C2=O")
92
>>> endpoint_value("O=C1NC(=O)/C(=C/c2ccc3c(c2)OC(F)(F)O3)S1")
90
>>> endpoint_value("CCN(CC)CCCCN1c2ccccc2Oc2ccc(Cl)cc21")
103
>>> endpoint_value("COc1cc2ncnc(Nc3ccc(Oc4ccccc4)cc3)c2cc1OC")
92
>>> endpoint_value("O=C1NC(=O)c2c1c1c3ccccc3[nH]c1c1[nH]c3cc(Br)ccc3c21")
58
>>> endpoint_value("c1ccc2c(-c3ccncc3)c[nH]c2c1")
82
>>> endpoint_value("O=Nc1c(-c2c(O)[nH]c3ccccc23)[nH]c2ccccc12")
5
>>> endpoint_value("NC(=O)c1ccc2[nH]c(-c3ccc(Oc4ccc(Cl)cc4)cc3)nc2c1")
82
>>> endpoint_value("Cn1cnc2cc3c(Nc4cccc(Br)c4)ncnc3cc21")
92
>>> endpoint_value("O=C1Nc2cc(Br)ccc2/C1=C1/Nc2ccccc2/C1=N\\O")
5
>>> endpoint_value("CCC(=O)Nc1ccc2ncnc(Nc3cccc(Br)c3)c2c1")
81
>>> endpoint_value("Nc1nc(Nc2ccc(S(N)(=O)=O)cc2)nn1C(=S)Nc1c(F)cccc1F")
3

---

target entity: Inhibitor of nuclear factor kappa-B kinase subunit alpha (Homo sapiens)
assay setup: at 1 µM
metric: residual activity (%)

>>> endpoint_value("Cc1nc2cc3nc(-c4cccs4)cnc3cc2n1C")
125
>>> endpoint_value("CC[n+]1c(/C=C/N(C)c2ccccc2)n(-c2ccccc2)c2ccc(-c3nc4ccccc4s3)cc21")
92
>>> endpoint_value("COc1cc2ncnc(Nc3ccc(NC(=O)c4ccccc4)cc3)c2cc1OC")
102
>>> endpoint_value("C[C@@H](N)[C@H]1CC[C@H](C(=O)Nc2ccncc2)CC1")
136

---

target entity: Mitogen-activated protein kinase 9 (Homo sapiens)
assay setup: at 10 µM
Description: Millipore: Percentage of residual kinase activity of MAPK9 at 10uM relative to control. Control inhibitor: Jnk Inhibitor II at 100.0uM. Buffer: 50 mM Tris pH 7.5, 0.1 mM EGTA, 0.1% ?-mercaptoethanol
Below, each entry is listed alongside its reported residual activity.
metric: residual activity (%)

>>> endpoint_value("CCOc1cc2ncnc(Nc3cccc(Br)c3)c2cc1OCC")
96
>>> endpoint_value("Cc1nc2cc3nc(-c4cccs4)cnc3cc2n1C")
106
>>> endpoint_value("Cc1nc(-c2ccccc2)c(-c2ccncc2)o1")
57
>>> endpoint_value("CCN(CC)C(=O)c1ccc(Nc2nc(OCC3CCCCC3)c3nc[nH]c3n2)cc1")
0
>>> endpoint_value("CC#CC(=O)Nc1cc2c(Nc3ccc(F)c(Cl)c3)ncnc2cn1")
95
